- Procedure Details: Concentration of BG or BG-d1 in blood samples after iv injection (HPLC)
- Type: in vivo, male Wistar rats
- Measurement Conditions: serum; rat, iv, 20 minutes; read-out: Amount of unmetabolized drug in blood samples
Recorded Metric: concentration at 20 min (µM)
Give just the numeric value; µM need not be written.

[2H]C1(c2ccccc2)OC[C@H]2OC(O)[C@H](O)[C@@H](O)[C@@H]2O1 (stereo partly drawn) [BG-d1, 4,6-O-deuterobenzylidene-d1 -D-glucose]
97

Turning now to a further record.
Look up concentration at 20 min: OC1O[C@@H]2COC(c3ccccc3)O[C@H]2[C@H](O)[C@H]1O (some centres unmarked)
48
